target: UniProt:P35372; test: Displacement of [3H]-DAMGO from mu opioid receptor (unknown origin) expressed in CHO cells incubated for 90 mins in presence of peptidase inhibitors
Sequence (P35372 whole entry): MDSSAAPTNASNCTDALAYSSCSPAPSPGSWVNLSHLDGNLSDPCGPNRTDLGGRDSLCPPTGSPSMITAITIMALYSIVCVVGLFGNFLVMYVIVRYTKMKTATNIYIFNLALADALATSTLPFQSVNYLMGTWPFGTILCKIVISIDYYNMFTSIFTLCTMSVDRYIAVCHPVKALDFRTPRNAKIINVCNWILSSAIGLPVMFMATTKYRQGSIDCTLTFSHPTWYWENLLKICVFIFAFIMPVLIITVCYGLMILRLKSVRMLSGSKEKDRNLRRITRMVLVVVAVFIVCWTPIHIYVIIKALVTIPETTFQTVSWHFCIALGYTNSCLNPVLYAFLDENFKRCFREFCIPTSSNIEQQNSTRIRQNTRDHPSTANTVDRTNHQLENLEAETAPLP
reported-property: pKi
Numbers only, as −log10 of the molar value.

CC(=O)N[C@H]1Cc2ccc(cc2)OC/C=C/COc2ccc(cc2)C[C@@H](C(=O)N[C@@H](Cc2ccccc2)C(=O)N[C@@H](CCCNC(=N)N)C(=O)N[C@@H](CC(C)C)C(=O)N[C@@H](CCCNC(=N)N)C(=O)N[C@@H](CCCNC(=N)N)C(=O)N[C@H](C)C(=O)N[C@@H](CCCNC(=N)N)C(=O)N2CCC[C@H]2C(=O)N[C@@H](CCCCN)C(N)=O)NC1=O: 5.84

Please give pKi for each item listed below.
1. CC(=O)N[C@@H](Cc1ccccc1)C(=O)N[C@H]1Cc2ccc(cc2)OC/C=C/COc2ccc(cc2)C[C@@H](C(=O)N[C@@H](CCCNC(=N)N)C(=O)N[C@@H](CC(C)C)C(=O)N[C@@H](CCCNC(=N)N)C(=O)N[C@@H](CCCNC(=N)N)C(=O)N[C@H](C)C(=O)N[C@@H](CCCNC(=N)N)C(=O)N2CCC[C@H]2C(=O)N[C@@H](CCCCN)C(N)=O)NC1=O
2. C=CCOc1cccc(C[C@H](NC(=O)[C@H](Cc2ccccc2)NC(C)=O)C(=O)N[C@@H](Cc2cccc(OCC=C)c2)C(=O)N[C@@H](CCCNC(=N)N)C(=O)N[C@@H](CC(C)C)C(=O)N[C@@H](CCCNC(=N)N)C(=O)N[C@@H](CCCNC(=N)N)C(=O)N[C@H](C)C(=O)N[C@@H](CCCNC(=N)N)C(=O)N2CCC[C@H]2C(=O)N[C@@H](CCCCN)C(N)=O)c1

## Result
5.86
6.08

These entries and their values trace back to ChEMBL document CHEMBL5055617.
